Target: Isocitrate dehydrogenase [NADP] cytoplasmic (Homo sapiens, UniProt O75874, R132H)
Sequence (O75874 2-414 R132H limits assumed): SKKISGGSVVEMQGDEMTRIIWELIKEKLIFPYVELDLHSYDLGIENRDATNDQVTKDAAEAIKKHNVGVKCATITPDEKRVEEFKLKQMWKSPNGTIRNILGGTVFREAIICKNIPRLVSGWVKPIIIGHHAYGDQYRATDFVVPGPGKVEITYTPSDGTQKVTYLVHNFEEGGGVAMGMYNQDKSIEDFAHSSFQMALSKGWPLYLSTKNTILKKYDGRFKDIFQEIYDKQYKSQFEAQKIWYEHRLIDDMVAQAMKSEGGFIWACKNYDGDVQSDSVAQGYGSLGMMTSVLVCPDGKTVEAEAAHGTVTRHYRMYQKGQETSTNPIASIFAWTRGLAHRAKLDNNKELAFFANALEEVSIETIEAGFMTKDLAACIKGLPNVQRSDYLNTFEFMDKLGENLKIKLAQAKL
Assay: Inhibition of IDH1 R132H mutant (unknown origin) using alpha-ketoglutarate and NADPH incubated for 60 mins by fluorescence based assay
# maps each entry to its IC50
Just the number in µM, nothing appended.

Worked cases, answers included:
1) O=C(O)C[C@@H]1CCCN(c2ccc(C(=O)NC3CCCCC3)c(OCCC3CC3)n2)C1 ... 8
2) O=C(O)C[C@@H]1CCCN(c2ccc(C(=O)NC3CCCCC3)c(OCc3ccc(Cl)cc3)n2)C1 ... 7.7

Task: Field request: IC50 | item: CCOC(=O)[C@H]1[C@@H]2CN(c3ccc(C(=O)NC4C5CC6CC4CC(O)(C6)C5)c(OCCC(C)C)n3)C[C@@H]21 (stereo not given in full)
Output: 13.5

Task: What do you have for CC(C)CC(C)Oc1nc(N2CCC[C@@H](CC(=O)O)C2)ccc1C(=O)NC1CCCCC1 (stereo not given in full) ?
Output: 12

Task: What do you have for CC(C)CCOc1nc(N2C[C@@H]3[C@H](C2)[C@H]3C(=O)O)ccc1C(=O)N(C)Cc1ccccc1 ?
Output: 7.4

====

Target: Isocitrate dehydrogenase [NADP] cytoplasmic (Homo sapiens, UniProt O75874, R132H)
Test: Inhibition of IDH1 R132H mutant (unknown origin) using alpha-ketoglutarate and NADPH incubated for 60 mins by fluorescence based assay
Reported endpoint: pIC50
Lab note — pIC50 values are minus log10 of concentrations in M.

1) COc1cccc(COc2nc(N3CCC[C@@H](CC(=O)O)C3)ccc2C(=O)NC2CCCCC2)c1 ... 4.92
2) CC(C)CCOc1nc(N2C[C@@H]3[C@H](C2)[C@H]3C(=O)O)ccc1C(=O)Nc1cccc(O)c1 ... 5.54
3) Cc1ccccc1COc1nc(N2CCC[C@@H](CC(=O)O)C2)ccc1C(=O)NC1C2CC3CC1CC(O)(C3)C2 (some centres not stated) ... 6.16
4) Cc1ccccc1COc1nc(N2CCC[C@@H](CC(=O)O)C2)ccc1C(=O)NC1CCCCC1 ... 5.35
5) CC(C)CCSc1nc(N2CCC[C@@H](CC(=O)O)C2)ccc1C(=O)NC1CCCCC1 ... 5.00

Task: Field request: pIC50 | item: O=C(NC1C2CC3CC1CC(O)(C3)C2)c1ccc(N2C[C@@H]3[C@H](C2)[C@H]3C(=O)O)nc1OCc1ccccc1Cl (some centres not stated)
Output: 5.49

Task: What do you have for O=C(O)C[C@@H]1CCCN(c2ccc(C(=O)NC3CCCCC3)c(SCc3ccccc3)n2)C1 ?
Output: 4.41

Task: What do you have for O=C(O)C[C@@H]1CCCN(c2ccc(C(=O)NC3CCCCC3)c(OCC3CCCCC3)n2)C1 ?
Output: 5.01

Task: What do you have for CC(C)=CCOc1nc(N2CCC[C@@H](CC(=O)O)C2)ccc1C(=O)NC1CCCCC1 ?
Output: 4.85

====

# maps each entry to its IC50
Target: Isocitrate dehydrogenase [NADP] cytoplasmic (Homo sapiens, UniProt O75874, R132H)
Experiment: Inhibition of IDH1 R132H mutant (unknown origin) using alpha-ketoglutarate and NADPH incubated for 60 mins by fluorescence based assay

1. COCCOc1nc(N2CCC[C@@H](CC(=O)O)C2)ccc1C(=O)NC1CCCCC1 ... > 50 µM
2. O=C(O)C[C@@H]1CCCN(c2ccc(C(=O)NC3CCCCC3)c(NCc3ccccc3)n2)C1 ... > 50 µM

// switching to the query molecule
Task: Field request: IC50 | item: O=C(O)C[C@@H]1CCCN(c2ccc(C(=O)NC3CCCCC3)c(OC3CCOCC3)n2)C1
Output: > 50 µM
